Where do the numbers come from? From ChEMBL document CHEMBL1201862.

- experimental.system: Protein RecA (Mycobacterium tuberculosis)
- run.description: Fluorescence Cell-Free Homogeneous Dose Retest to Identify Inhibitors of RecA-Intein Splicing Activity. [Related pubchem assays (depositor defined):AID2097, AID2223, AID489010, AID492950]
- Assay type: functional
The source made the active and inactive calls.
assay.metric: EC50

compound | EC50
Cc1ccc(CNC(=O)CCN2C(=O)[C@@H]3Cc4ccccc4CN3C2=O)cc1 | > 380 µM (inactive)

Item Cc1ccc(N2C(=O)C(Cl)=C(NCCO)C2=O)c(C)c1 : provide EC50
10.8 µM (active)

Item O=C(CCl)NCc1c(Cl)cccc1-n1cccc1 : provide EC50
15.3 µM (active)

Item C/C(=N\NC(=O)c1ccncc1)c1cc2ccccc2oc1=O : provide EC50
2.86 µM (active)

Item c1ccc2nc3cc4[nH]cnc4cc3nc2c1 : provide EC50
29.6 µM (inconclusive)

Item CC1(S(=O)(=O)O)CC(=O)c2ccccc2C1=O (stereo unspecified) : provide EC50
3.03 µM (active)

###

- experimental.system: Peroxisome proliferator-activated receptor gamma/Nuclear receptor coactivator 2 (Homo sapiens, UniProt P37231);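 further: agonist potency for raising coactivator recruitment to the receptor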
- Sequence (P37231 whole entry): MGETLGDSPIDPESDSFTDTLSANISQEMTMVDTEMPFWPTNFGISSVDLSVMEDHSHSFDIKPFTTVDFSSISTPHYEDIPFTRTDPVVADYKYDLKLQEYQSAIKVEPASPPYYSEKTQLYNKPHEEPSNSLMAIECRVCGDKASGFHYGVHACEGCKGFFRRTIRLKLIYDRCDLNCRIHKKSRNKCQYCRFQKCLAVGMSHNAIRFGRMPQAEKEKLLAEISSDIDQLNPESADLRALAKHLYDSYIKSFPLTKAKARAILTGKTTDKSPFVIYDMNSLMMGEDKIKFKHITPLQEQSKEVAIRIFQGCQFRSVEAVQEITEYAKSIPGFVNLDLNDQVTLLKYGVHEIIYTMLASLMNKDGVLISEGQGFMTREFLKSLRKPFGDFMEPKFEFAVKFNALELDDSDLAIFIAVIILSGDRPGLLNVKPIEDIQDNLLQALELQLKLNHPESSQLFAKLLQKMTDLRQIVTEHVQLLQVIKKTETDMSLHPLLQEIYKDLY
- Sequence (Q15596 whole entry, further chain): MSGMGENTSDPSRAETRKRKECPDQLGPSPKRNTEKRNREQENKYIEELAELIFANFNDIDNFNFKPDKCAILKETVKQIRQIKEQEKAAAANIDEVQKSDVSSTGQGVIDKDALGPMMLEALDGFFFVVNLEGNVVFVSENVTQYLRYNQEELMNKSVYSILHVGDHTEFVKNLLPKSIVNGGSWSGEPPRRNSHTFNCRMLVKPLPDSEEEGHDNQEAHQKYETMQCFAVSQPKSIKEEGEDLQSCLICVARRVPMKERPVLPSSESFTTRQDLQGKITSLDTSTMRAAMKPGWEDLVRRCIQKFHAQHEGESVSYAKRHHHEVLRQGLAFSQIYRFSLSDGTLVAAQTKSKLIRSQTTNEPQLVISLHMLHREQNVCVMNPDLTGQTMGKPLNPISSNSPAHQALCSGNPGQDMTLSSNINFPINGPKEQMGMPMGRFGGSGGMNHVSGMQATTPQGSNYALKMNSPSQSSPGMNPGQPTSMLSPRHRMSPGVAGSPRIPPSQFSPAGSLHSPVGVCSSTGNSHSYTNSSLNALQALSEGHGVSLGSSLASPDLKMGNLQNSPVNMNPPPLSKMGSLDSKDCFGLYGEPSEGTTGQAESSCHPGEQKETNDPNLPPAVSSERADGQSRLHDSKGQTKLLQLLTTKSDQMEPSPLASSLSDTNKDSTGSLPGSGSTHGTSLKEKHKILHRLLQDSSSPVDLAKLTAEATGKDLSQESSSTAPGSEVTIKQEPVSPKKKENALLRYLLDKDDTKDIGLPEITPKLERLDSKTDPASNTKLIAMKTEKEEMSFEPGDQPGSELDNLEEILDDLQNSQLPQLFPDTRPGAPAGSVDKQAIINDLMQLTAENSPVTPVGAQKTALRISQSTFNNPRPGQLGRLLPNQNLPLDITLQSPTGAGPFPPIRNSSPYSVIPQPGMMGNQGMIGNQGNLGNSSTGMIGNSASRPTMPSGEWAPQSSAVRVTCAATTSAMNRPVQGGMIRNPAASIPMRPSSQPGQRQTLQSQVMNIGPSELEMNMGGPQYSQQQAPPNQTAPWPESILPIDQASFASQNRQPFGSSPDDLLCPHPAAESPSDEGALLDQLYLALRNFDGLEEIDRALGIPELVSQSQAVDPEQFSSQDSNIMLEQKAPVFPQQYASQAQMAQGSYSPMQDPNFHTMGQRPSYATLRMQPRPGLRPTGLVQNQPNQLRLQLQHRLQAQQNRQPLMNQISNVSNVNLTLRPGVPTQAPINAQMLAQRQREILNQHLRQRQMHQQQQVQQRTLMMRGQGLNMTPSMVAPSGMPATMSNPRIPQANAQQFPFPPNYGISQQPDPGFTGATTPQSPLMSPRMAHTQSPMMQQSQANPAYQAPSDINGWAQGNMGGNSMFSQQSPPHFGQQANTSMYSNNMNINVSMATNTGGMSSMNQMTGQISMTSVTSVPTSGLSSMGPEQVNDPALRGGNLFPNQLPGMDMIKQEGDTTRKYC
- Type: functional
Active and inactive are the calls of the source.
# Lookup of reported EC50 keyed by entry

The examples below pair each entry with its known result.
compound.structure | EC50
COc1ccc(OC)c(NC(=O)CSc2nnc(N)s2)c1 | > 79.4 µM (not active)
CCn1cc(/C=C/C(=O)Nc2ccn(Cc3c(F)c(F)c(F)c(F)c3F)n2)cn1 | > 79.4 µM (not active)
CCc1ccc2c(c1)cc(CN(C(=S)Nc1ccc(Cl)cc1)C1CC1)c1nnnn12 | 8.9 µM (active)

Would you kindly look at the next entry?
Item COc1ccc(-c2[nH]c3ccccc3c2SCCNC(=O)c2ccccc2)cc1 : provide EC50
33.6 µM (not active)

###

# Lookup of reported EC50 keyed by entry
- experimental.system: Corticotropin-releasing factor receptor 2/Corticotropin-releasing factor-binding protein (Homo sapiens, UniProt P24387+Q13324)
- Sequence (Q13324 whole entry): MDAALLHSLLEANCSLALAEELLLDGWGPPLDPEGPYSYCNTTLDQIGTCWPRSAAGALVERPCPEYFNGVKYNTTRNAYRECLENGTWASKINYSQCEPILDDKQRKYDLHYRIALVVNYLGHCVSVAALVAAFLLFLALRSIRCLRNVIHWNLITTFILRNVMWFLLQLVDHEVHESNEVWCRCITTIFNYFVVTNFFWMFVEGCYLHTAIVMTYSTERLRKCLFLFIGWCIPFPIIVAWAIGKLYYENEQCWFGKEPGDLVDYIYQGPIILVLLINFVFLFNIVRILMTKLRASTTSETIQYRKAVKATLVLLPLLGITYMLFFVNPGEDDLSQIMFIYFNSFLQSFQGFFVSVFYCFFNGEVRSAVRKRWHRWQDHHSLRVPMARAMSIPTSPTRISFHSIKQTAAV
- Sequence (P24387 whole entry): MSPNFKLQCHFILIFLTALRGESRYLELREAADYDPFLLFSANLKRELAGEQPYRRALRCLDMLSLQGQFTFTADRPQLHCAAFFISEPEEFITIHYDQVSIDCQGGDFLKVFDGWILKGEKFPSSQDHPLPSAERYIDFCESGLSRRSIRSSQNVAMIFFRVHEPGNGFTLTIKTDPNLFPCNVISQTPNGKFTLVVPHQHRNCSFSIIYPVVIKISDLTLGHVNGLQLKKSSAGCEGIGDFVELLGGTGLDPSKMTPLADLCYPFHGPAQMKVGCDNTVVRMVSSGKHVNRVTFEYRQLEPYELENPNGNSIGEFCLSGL
- run.description: activators of CRF receptor 2 with binding protein – uHTS hits, confirmation (AID 602473)
- Type: functional
- protocol.conditions: read-out: EC50_Mean
The source made the active and inactive calls.

The examples below pair each entry with its known result.
molecule | EC50
COC(=O)C1=C(C)N(c2ccc(OC)cc2)C(C)=C(C(=O)OC)C1c1ccccc1 | > 53 µM (inactive)
Cc1cccn2c(/C=N/OCc3cccc(F)c3)c(-c3ccc(Cl)cc3)nc12 | > 53 µM (inactive)

Would you kindly look at the next entry?
Item COc1ccc(CN(C(=O)c2nsc(Cl)c2Cl)C(C(=O)NC2CCCC2)c2ccc(OC)cc2)cc1 (stereo not drawn) : provide EC50
> 53 µM (inactive)

###

Hi! I'm sharing some AC50 results obtained with Cytochrome P450 2C9 (Homo sapiens, UniProt P11712).
Sequence (P11712 whole entry): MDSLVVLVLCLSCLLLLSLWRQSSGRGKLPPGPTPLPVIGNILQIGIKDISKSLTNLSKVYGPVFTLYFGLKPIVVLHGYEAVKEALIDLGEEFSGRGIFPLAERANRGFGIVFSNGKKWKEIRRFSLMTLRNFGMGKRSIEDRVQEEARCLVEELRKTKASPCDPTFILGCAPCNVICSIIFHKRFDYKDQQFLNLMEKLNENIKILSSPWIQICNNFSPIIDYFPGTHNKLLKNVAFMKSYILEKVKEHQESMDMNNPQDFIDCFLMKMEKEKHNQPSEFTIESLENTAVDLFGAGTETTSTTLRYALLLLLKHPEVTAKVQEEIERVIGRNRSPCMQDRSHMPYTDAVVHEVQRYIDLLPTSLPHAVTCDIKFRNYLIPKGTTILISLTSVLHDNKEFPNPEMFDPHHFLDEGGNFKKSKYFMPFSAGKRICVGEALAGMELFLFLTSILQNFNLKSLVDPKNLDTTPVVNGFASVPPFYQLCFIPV

Item CCCCc1cc(=O)oc2cc(OCC(=O)N(CC)CC)ccc12 : provide AC50
25.1 µM (inconclusive)

Item O=c1c(-c2ccccc2)nc2cnc(N3CCOCC3)nc2n1Cc1ccc(F)cc1 : provide AC50
15.8 µM (inconclusive)

Item COc1ccc([N+](=O)[O-])cc1NCc1ccccc1C : provide AC50
17.8 µM (inconclusive)

Item NC(=O)c1ccc([N+](=O)[O-])cc1SCc1ccccc1 : provide AC50
28.2 µM (inconclusive)

Item O=c1c(CCc2ccccc2)nc2cnc(N3CCOCC3)nc2n1CCc1ccccc1 : provide AC50
2 µM (inconclusive)

Item CCOC(=O)C1=C(C)N=C(C)/C(=C(\O)OCC)C1c1sccc1C (centres undefined) : provide AC50
0.891 µM (inconclusive)

###

- Tested on: INS1
- run.description: INS-1E survival protection against cytokine death – cell-based, luminescence, retest, dose response (AID 449756);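 further: cell death triggered by IL-1 beta plus TNF-alpha plus IFN-gamma mixture; protective hits raise ATP signal compared with cytokine alone wells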
- Assay type: functional
- protocol.conditions: Rattus norvegicus
Active and inactive are the calls of the source.
assay.metric: AC50

Item O=C(Cc1ccccc1)N/N=C/c1ccc([N+](=O)[O-])s1 : provide AC50
6.38 µM (active)

Item CC1=C(CO)C(=O)OC([C@@H](C)C2CC[C@H]3C4C[C@H]5O[C@]56[C@@H](O)C=CC(=O)[C@]6(C)C4CC[C@]23C)C1 (some centres undefined) : provide AC50
7.49 µM (active)

Item O=C1c2ccc3c4c(ccc(c24)C(=O)N1c1cccc(O)c1)C(=O)N(c1cccc(O)c1)C3=O : provide AC50
0.848 µM (active)

Item COc1ccc(C(=O)NC(=S)NNC(=O)c2cnccn2)cc1OC : provide AC50
1.03 µM (active)

###

- experimental.system: High affinity choline transporter 1 (Homo sapiens)
- Sequence (Q9GZV3 whole entry): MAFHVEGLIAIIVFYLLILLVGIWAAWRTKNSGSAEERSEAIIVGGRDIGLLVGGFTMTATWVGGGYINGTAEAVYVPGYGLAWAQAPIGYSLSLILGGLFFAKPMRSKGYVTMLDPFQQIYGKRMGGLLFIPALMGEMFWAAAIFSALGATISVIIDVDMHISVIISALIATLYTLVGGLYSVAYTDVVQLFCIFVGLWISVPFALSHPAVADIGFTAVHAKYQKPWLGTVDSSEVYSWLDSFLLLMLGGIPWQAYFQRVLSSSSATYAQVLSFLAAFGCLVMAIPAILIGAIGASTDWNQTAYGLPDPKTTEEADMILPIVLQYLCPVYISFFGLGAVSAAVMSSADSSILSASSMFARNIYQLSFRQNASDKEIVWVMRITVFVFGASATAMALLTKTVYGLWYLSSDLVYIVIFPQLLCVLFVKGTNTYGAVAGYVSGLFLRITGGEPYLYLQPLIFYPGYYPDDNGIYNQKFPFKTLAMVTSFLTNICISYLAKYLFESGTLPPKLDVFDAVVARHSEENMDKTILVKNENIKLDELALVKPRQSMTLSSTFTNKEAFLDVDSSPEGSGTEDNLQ
- run.description: human choline transporter blockers, potency – cell-based, 5-point CRC, membrane potential dye, dose response (AID 504840)
- Type: functional
Active and inactive are the calls of the source.
assay.metric: IC50

The examples below pair each entry with its known result.
molecule | experimental.value
COc1ccc(-n2c(C)cc(C(=O)CSc3nnc(-c4ccoc4C)n3C)c2C)cc1 | 13.8 µM (active)
CC1CCCCC1NC(=O)c1cccc(S(=O)(=O)N2CCN(C)CC2)c1 (stereo not drawn) | 4.37 µM (active)
OCCN1CCN(c2ncnc3scc(-c4ccc(F)cc4)c23)CC1 | 6.59 µM (active)
Cn1c(/C=C/N(Cc2ccccc2)c2ccccc2)c([N+](=O)[O-])c(=O)n(C)c1=O | 2.98 µM (active)
CCOC(=O)C1CCN(Cc2c(O)oc3ccccc3c2=O)CC1 | 6.91 µM (active)

Item O=C(NNC1=C(C(=O)C(F)(F)F)CCC1)c1ccc(Br)cc1 : provide IC50
11.2 µM (active)

Item O=C(NN1C(=O)/C(=C/c2cccs2)SC1=S)c1ccncc1 : provide IC50
7.57 µM (active)

Item CCCCn1c(SCn2nnc3ccccc3c2=O)nc2cc(S(N)(=O)=O)ccc21 : provide IC50
15.8 µM (active)

###

# Lookup of reported AC50 keyed by entry
- experimental.system: Cytochrome P450 2C19 (Homo sapiens, UniProt P33261)
- Sequence (P33261 whole entry): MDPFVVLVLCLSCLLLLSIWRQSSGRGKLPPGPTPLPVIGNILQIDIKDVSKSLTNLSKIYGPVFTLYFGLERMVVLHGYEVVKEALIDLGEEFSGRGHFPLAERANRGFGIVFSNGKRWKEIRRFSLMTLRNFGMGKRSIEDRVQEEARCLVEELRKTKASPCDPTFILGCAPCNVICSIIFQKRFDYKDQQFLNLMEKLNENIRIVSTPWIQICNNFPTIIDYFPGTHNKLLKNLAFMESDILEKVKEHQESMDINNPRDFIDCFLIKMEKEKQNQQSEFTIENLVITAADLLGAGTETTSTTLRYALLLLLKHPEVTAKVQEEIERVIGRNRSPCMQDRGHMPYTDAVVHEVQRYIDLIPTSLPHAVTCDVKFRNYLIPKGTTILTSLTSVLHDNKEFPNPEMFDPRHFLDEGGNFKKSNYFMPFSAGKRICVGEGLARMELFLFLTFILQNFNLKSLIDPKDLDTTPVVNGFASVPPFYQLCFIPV
- run.description: Cytochrome panel assay with activity outcomes. Panel member name: p450-cyp2c19 Compounds with AC50 equal or less than 10 uM are considered active
- Format: functional
- protocol.conditions: read-out: AC50

The examples below pair each entry with its known result.
compound | AC50
CCc1ccc(C2=Nn3c(nnc3-c3cccs3)SC2)cc1 | 5.62 µM (inconclusive)
CC(C)[C@@H]1O[C@H](/C=C\c2ccccc2)OCC1(C)C | 5.01 µM (inconclusive)
CCN1C(=O)C2(SC(NC(C)=O)=NN2C(C)=O)c2cc(C)ccc21 (stereo unspecified) | 14.1 µM (inconclusive)
CCOc1ccc(C(C)=O)cc1N1C(=O)C2C3C=CC(O3)C2C1=O (stereo unspecified) | 39.8 µM (inconclusive)

Retrieve AC50 on Cytochrome P450 2C19 (Homo sapiens, UniProt P33261); query COc1ccccc1C(OC(=O)c1cccs1)C(=O)NCC1CCCO1 (stereo unspecified)
5.01 µM (inconclusive)

Retrieve AC50 on Cytochrome P450 2C19 (Homo sapiens, UniProt P33261); query Oc1ccc(-c2nc(-c3ccncc3)c(-c3ccc(F)cc3)[nH]2)cc1
10 µM (inconclusive)

Retrieve AC50 on Cytochrome P450 2C19 (Homo sapiens, UniProt P33261); query CCCCc1cc(=O)oc2cc(OCC(=O)N(CC)CC)ccc12
31.6 µM (inconclusive)

Retrieve AC50 on Cytochrome P450 2C19 (Homo sapiens, UniProt P33261); query COc1ccc(C2N=C(N)N=C(N)N2c2ccccc2OC)cc1OC (stereo unspecified)
39.8 µM (inconclusive)

Retrieve AC50 on Cytochrome P450 2C19 (Homo sapiens, UniProt P33261); query O=C(Nc1ccccc1)N1CCCC2(CCN(C(=O)c3cccc(F)c3)CC2)C1
10 µM (inconclusive)

Retrieve AC50 on Cytochrome P450 2C19 (Homo sapiens, UniProt P33261); query COc1cc(NC(=O)c2ccc(COCC(F)(F)F)cc2)cc(OC)c1OC
28.2 µM (inconclusive)

Retrieve AC50 on Cytochrome P450 2C19 (Homo sapiens, UniProt P33261); query Cc1ccc(C(c2nnnn2C2CCCC2)N2CCN3CCCC3C2)cc1 (stereo unspecified)
31.6 µM (inconclusive)

###

- experimental.system: Corticotropin-releasing factor receptor 2/Corticotropin-releasing factor-binding protein (Homo sapiens, UniProt P24387+Q13324)
- run.description: Dose Response confirmation of uHTS hits for small molecule antagonists of the CRF-binding protein and CRF-R2 receptor complex.
- Assay type: functional
- protocol.conditions: read-out: IC50_Mean
Activity calls are given as the source filed them.
Bench note: report the call from yes (active), no (inactive)

compound | class.name
O=C(CSc1nc2ccccc2n1CCc1ccccc1)NC1CCS(=O)(=O)C1 (stereo not given) | no

Please indicate how the test categorized O=C(CCN1CCCCC1=O)NC1CCCN(Cc2ccc(Cl)cc2)C1 (stereo not given) .
no

Please indicate how the test categorized C/C(=N\OCC(=O)Nc1ccc(F)c(F)c1F)c1cc2ccccc2o1 .
no

Please indicate how the test categorized Cc1ccc(S(=O)(=O)Nc2ccc3ccccc3c2[N+](=O)[O-])cc1 .
yes

Please indicate how the test categorized CCOc1cc(C2C(C(=O)OC)=CN(C3CCCC3)C=C2C(=O)OC)cc(Br)c1O .
no
